- Experimental target: Mtb20SOG (Mycobacterium tuberculosis)
- Sequence (P9WHT9 58-291): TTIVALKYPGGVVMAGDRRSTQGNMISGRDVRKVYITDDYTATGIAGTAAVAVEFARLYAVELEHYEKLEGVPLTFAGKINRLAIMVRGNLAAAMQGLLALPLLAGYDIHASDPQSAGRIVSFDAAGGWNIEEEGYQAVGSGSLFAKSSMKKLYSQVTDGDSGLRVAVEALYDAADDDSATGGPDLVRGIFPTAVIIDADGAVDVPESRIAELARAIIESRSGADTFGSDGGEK
- Measurement notes: Kinetics of inhibition of Mtb20SOG, progress curves of Suc-LLVY-AMC cleavage
- Type: biochemical
- Test context: Kiapp, apparent, Morrison equation 3, uncorrected
Readout kind: Ki
Remember to quote the unit after the number.

Q: So what's the measured Ki for this one? CCCCCCCCC[C@@H](O)CC(=O)N[C@@H](CC(N)=O)C(=O)N[C@@H](CCC(N)=O)C(=O)N[C@H](C=O)CC(C)C [compound 1, (R)-3-hydroxydodecanoyl-Asn-Gln-Leu-CHO]
A: 11.1 nM
